# credit: ChEMBL document CHEMBL1141241

Biological target: Coagulation factor X (Homo sapiens) (UniProt P00742)
Sequence (P00742 41-179 limits assumed): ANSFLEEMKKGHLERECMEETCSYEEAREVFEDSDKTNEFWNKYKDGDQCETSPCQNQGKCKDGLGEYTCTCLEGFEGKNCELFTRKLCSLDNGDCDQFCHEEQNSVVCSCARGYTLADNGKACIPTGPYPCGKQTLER
Sequence (P00742 235-488 limits assumed): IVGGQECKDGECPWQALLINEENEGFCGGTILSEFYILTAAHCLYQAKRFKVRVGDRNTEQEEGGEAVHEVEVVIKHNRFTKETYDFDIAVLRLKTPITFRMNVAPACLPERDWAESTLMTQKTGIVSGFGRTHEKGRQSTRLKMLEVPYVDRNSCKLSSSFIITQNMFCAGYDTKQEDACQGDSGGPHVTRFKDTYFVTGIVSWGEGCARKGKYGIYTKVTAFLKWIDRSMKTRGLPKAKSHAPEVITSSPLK
Assay: Inhibitory activity against human FXa at 5 uM; values are per cent of control
OUTCOME MEASURE: residual activity (%)
Answer with a number only, understood to be in %.

{"INPUT SMILES": "O=C(Oc1cc(Cl)ccc1Cl)c1cc2cc(CCl)ccc2oc1=O", "UNITS SYMBOL": "%", "residual activity": 39}
{"INPUT SMILES": "COc1cc(Cl)cc(OC(=O)c2cc3cc(CCl)ccc3oc2=O)c1", "UNITS SYMBOL": "%", "residual activity": 126}
{"INPUT SMILES": "O=C(c1cccc(Cl)c1)c1cc2cc(CCl)ccc2oc1=O", "UNITS SYMBOL": "%", "residual activity": 83}

With those in mind, consider the next compound.
Looking for the measured residual activity of O=C(Oc1ccccn1)c1cc2cc(CCl)ccc2oc1=O , can you help?
89

----------
Biological target: Coagulation factor X (Homo sapiens)
Experiment: Inhibitory activity against human FXa at 5 uM; values are per cent of control
OUTCOME MEASURE: residual activity (%)
Answer with a number only, understood to be in %.

Here's what some known entries look like.
{"INPUT SMILES": "O=C(Oc1cccc(F)c1)c1cc2cc(CCl)ccc2oc1=O", "UNITS SYMBOL": "%", "residual activity": 61}
{"INPUT SMILES": "O=C(OCc1ccccc1)c1cc2cc(CCl)ccc2oc1=O", "UNITS SYMBOL": "%", "residual activity": 110}
{"INPUT SMILES": "O=C(Oc1cccc(Cl)c1)c1cc2cc(CCl)ccc2oc1=O", "UNITS SYMBOL": "%", "residual activity": 29}
{"INPUT SMILES": "O=C(Oc1cccc(Br)c1)c1cc2cc(CCl)ccc2oc1=O", "UNITS SYMBOL": "%", "residual activity": 33}
{"INPUT SMILES": "O=C(Oc1ccc(I)cc1)c1cc2cc(CCl)ccc2oc1=O", "UNITS SYMBOL": "%", "residual activity": 80}

Looking for the measured residual activity of Cc1ccc(OC(=O)c2cc3cc(CCl)ccc3oc2=O)cc1 , can you help?
72

Looking for the measured residual activity of CC(=O)OCc1ccc2oc(=O)c(C(=O)Oc3cccc(Cl)c3)cc2c1 , can you help?
82

Looking for the measured residual activity of O=C(Oc1ccc2ccccc2c1)c1cc2cc(CCl)ccc2oc1=O , can you help?
113

Looking for the measured residual activity of O=C(Oc1cccnc1)c1cc2cc(CCl)ccc2oc1=O , can you help?
114

Looking for the measured residual activity of O=C(Oc1cccc(Cl)c1)c1cc2ccccc2oc1=O , can you help?
77

----------
Target: Prothrombin (Homo sapiens)
Settings: at 2 µM
Description: Inhibitory activity against human thrombin at 2 uM
List of residual activity values.
Answer with a number only, understood to be in %.

Here's what some known entries look like.
{"INPUT SMILES": "O=C(Oc1cccc(Cl)c1)c1cc2cc(CCl)ccc2oc1=O", "UNITS SYMBOL": "%", "residual activity": 10}
{"INPUT SMILES": "O=C(Oc1ccccc1Cl)c1cc2cc(CCl)ccc2oc1=O", "UNITS SYMBOL": "%", "residual activity": 78}
{"INPUT SMILES": "O=C(OCc1ccccc1)c1cc2cc(CCl)ccc2oc1=O", "UNITS SYMBOL": "%", "residual activity": 95}
{"INPUT SMILES": "O=C(Oc1ccccc1)c1cc2cc(CCl)ccc2oc1=O", "UNITS SYMBOL": "%", "residual activity": 60}
{"INPUT SMILES": "O=C(Sc1cccc(Cl)c1)c1cc2cc(CCl)ccc2oc1=O", "UNITS SYMBOL": "%", "residual activity": 107}

Looking for the measured residual activity of O=C(Cc1cccc(Cl)c1)c1cc2cc(CCl)ccc2oc1=O , can you help?
77

----------
List of residual activity values.
Target: Coagulation factor X (Homo sapiens) (UniProt P00742)
Assay: Inhibitory activity against human FXa at 5 uM; values are per cent of control
Answer with a number only, understood to be in %.

{"INPUT SMILES": "O=C(Oc1c(Cl)cccc1Cl)c1cc2cc(CCl)ccc2oc1=O", "TARGET UNDER TEST": "Coagulation factor X (Homo sapiens) (UniProt P00742)", "UNITS SYMBOL": "%", "residual activity": 109}
{"INPUT SMILES": "O=C(Oc1ccc(Cl)cc1)c1cc2cc(CCl)ccc2oc1=O", "TARGET UNDER TEST": "Coagulation factor X (Homo sapiens) (UniProt P00742)", "UNITS SYMBOL": "%", "residual activity": 102}
{"INPUT SMILES": "O=C(Oc1ccc2ncccc2c1)c1cc2cc(CCl)ccc2oc1=O", "TARGET UNDER TEST": "Coagulation factor X (Homo sapiens) (UniProt P00742)", "UNITS SYMBOL": "%", "residual activity": 125}
{"INPUT SMILES": "O=C(Oc1cccc(Cl)c1Cl)c1cc2cc(CCl)ccc2oc1=O", "TARGET UNDER TEST": "Coagulation factor X (Homo sapiens) (UniProt P00742)", "UNITS SYMBOL": "%", "residual activity": 125}
{"INPUT SMILES": "O=C(Sc1cccc(Cl)c1)c1cc2cc(CCl)ccc2oc1=O", "TARGET UNDER TEST": "Coagulation factor X (Homo sapiens) (UniProt P00742)", "UNITS SYMBOL": "%", "residual activity": 60}
{"INPUT SMILES": "O=C(Oc1ccccc1Cl)c1cc2cc(CCl)ccc2oc1=O", "TARGET UNDER TEST": "Coagulation factor X (Homo sapiens) (UniProt P00742)", "UNITS SYMBOL": "%", "residual activity": 134}

With those in mind, consider the next compound.
Looking for the measured residual activity of O=C(Oc1cc(Cl)cc(Cl)c1)c1cc2cc(CCl)ccc2oc1=O , can you help?
73

----------
Molecular target: UniProtKB P00742
Test: Inhibitory activity against human FXa at 5 uM; values are per cent of control
OUTCOME MEASURE: residual activity (%)
Answer with a number only, understood to be in %.

Here's what some known entries look like.
{"INPUT SMILES": "O=C(Oc1ccccc1I)c1cc2cc(CCl)ccc2oc1=O", "TARGET UNDER TEST": "UniProtKB P00742", "OUTCOME MEASURE": "residual activity", "UNITS SYMBOL": "%", "MEASURED RESULT": 92}
{"INPUT SMILES": "O=C(Cc1cccc(Cl)c1)c1cc2cc(CCl)ccc2oc1=O", "TARGET UNDER TEST": "UniProtKB P00742", "OUTCOME MEASURE": "residual activity", "UNITS SYMBOL": "%", "MEASURED RESULT": 77}
{"INPUT SMILES": "O=C(Oc1cccc2ccccc12)c1cc2cc(CCl)ccc2oc1=O", "TARGET UNDER TEST": "UniProtKB P00742", "OUTCOME MEASURE": "residual activity", "UNITS SYMBOL": "%", "MEASURED RESULT": 109}
{"INPUT SMILES": "O=C(Oc1cccc2cccnc12)c1cc2cc(CCl)ccc2oc1=O", "TARGET UNDER TEST": "UniProtKB P00742", "OUTCOME MEASURE": "residual activity", "UNITS SYMBOL": "%", "MEASURED RESULT": 114}
{"INPUT SMILES": "Cc1ccccc1OC(=O)c1cc2cc(CCl)ccc2oc1=O", "TARGET UNDER TEST": "UniProtKB P00742", "OUTCOME MEASURE": "residual activity", "UNITS SYMBOL": "%", "MEASURED RESULT": 103}

Looking for the measured residual activity of O=C(Nc1cccc(Cl)c1)c1cc2cc(CCl)ccc2oc1=O , can you help?
89

Looking for the measured residual activity of O=C(Oc1ccccc1)c1cc2cc(CCl)ccc2oc1=O , can you help?
59

Looking for the measured residual activity of Cc1ccc2oc(=O)c(C(=O)Oc3cccc(Cl)c3)cc2c1 , can you help?
61

----------
Target: Coagulation factor X (Homo sapiens)
Test: Inhibitory activity against human FXa at 5 uM; values are per cent of control
List of residual activity values.
Answer with a number only, understood to be in %.

{"INPUT SMILES": "COc1cccc(OC(=O)c2cc3cc(CCl)ccc3oc2=O)c1", "OUTCOME MEASURE": "residual activity", "MEASURED RESULT": 108}
{"INPUT SMILES": "O=C(Oc1cccc(C(F)(F)F)c1)c1cc2cc(CCl)ccc2oc1=O", "OUTCOME MEASURE": "residual activity", "MEASURED RESULT": 134}
{"INPUT SMILES": "O=C(Oc1cccc([N+](=O)[O-])c1)c1cc2cc(CCl)ccc2oc1=O", "OUTCOME MEASURE": "residual activity", "MEASURED RESULT": 124}
{"INPUT SMILES": "Cc1cccc(OC(=O)c2cc3cc(CCl)ccc3oc2=O)c1", "OUTCOME MEASURE": "residual activity", "MEASURED RESULT": 78}

With those in mind, consider the next compound.
Looking for the measured residual activity of O=C(Oc1cccc(I)c1)c1cc2cc(CCl)ccc2oc1=O , can you help?
73
